Cited source for all entries: patent US20240109853A1

- System: ALPK1-dependent NFκB reporter gene activation in HEK293 cells stably expressing an NF-kB reporter (G9 cells)
- assay.procedure: NFκB gene reporter alkaline phosphatase assay
- Type: cell-based
- details: Homo sapiens, HEK293; read-out: NFkB assay IC50
pIC50: −log10 of the molar value.
Each entry below lists one item and its recorded pIC50 value.
recorded.endpoint: pIC50

| compound | value.observed |
| --- | --- |
| COc1ccc(C(C)(C)c2csc(NC(=O)NCc3ccc(C(=O)N4CCC(N)C4)nc3)n2)cc1 (stereo not drawn) | 4.49 |
| C#CC(C)(c1ccc(Cl)cc1)c1csc(NC(=O)NCC(O)CO)n1 (stereo not drawn) | 5.99 |
| COc1ccc(C(C)(C)c2csc(NC(=O)NC(C)c3cc(F)c(N4CCNCC4)c(F)c3)n2)cc1 (stereo not drawn) | 6.46 |
| CC(C)(c1ccc(Br)cc1)c1csc(NC(=O)NCc2ccc(OCCN)cc2)n1 | 5.56 |
| C#CC(C)(c1ccc(Br)cc1)c1csc(NC(=O)NCCN2CCNCC2)n1 (stereo not drawn) | 6.07 |
| C#CC(C)(c1ccc(Cl)cc1)c1csc(NC(=O)N(C)CCO)n1 (stereo not drawn) | 5.68 |
| CC(C)(c1ccc(Br)cc1)c1csc(NC(=O)NCc2ccc(N3CCNCC3)c(C(F)(F)F)c2)n1 | 6.10 |
| NC1CCN(c2ccc(CNC(=O)Nc3nc(C4(c5ccc(Br)cc5)CCCC4)cs3)cc2)CC1 | 5.16 |
| C#CC(C)(c1ccc(Cl)cc1)c1csc(NC(=O)NCCO)n1 (stereo not drawn) | 6.51 |
